Target sequence: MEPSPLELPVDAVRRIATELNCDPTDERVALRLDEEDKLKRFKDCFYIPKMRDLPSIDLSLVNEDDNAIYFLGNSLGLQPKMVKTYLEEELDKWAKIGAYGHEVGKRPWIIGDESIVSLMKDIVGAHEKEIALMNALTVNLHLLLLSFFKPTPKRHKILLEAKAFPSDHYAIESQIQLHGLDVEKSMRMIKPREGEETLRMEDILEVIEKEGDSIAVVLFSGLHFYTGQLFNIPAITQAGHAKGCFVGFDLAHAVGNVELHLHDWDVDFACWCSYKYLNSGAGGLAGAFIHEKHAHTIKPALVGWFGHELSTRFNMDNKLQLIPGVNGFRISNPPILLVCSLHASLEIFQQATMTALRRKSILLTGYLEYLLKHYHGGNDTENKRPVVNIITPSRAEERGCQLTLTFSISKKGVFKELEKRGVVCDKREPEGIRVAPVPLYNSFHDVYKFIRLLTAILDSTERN
outcome.measure: IC50 (µM)
Give a bare numeral; the unit µM is implied.

Examples with their reported IC50 follow.
Q: Give the measured IC50 for NC(CC(=O)c1cccnc1)C(=O)O (centres undefined) [NICOTINOYLALANINENAL]
Result: 800

Q: Give the measured IC50 for NC(CC(=O)c1ccccc1[N+](=O)[O-])C(=O)O (centres undefined) [(ortho-nitrobenzoyl)alanine]
Result: 100

Continuing:
Q: Give the measured IC50 for NC(CC(=O)c1ccc([N+](=O)[O-])cc1)C(=O)O (centres undefined)
Result: 900

Q: Give the measured IC50 for NC(CC(=O)c1cccc([N+](=O)[O-])c1)C(=O)O (centres undefined)
Result: 100
